Target: KRAS (G12D)::SOS1 (Homo sapiens (Human), UniProt P01116, G12D)
Sequence (P01116 other isoform, or with tags, fused parts or gaps G12D): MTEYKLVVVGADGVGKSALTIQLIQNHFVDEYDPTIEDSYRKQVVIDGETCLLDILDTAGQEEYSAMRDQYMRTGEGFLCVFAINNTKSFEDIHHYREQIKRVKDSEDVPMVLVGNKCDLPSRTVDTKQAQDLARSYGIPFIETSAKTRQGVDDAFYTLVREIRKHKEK
Assay: KRAS::SOS1 AlphaScreen binding assay, KRAS G12D
pIC50: −log10 of the molar value.
MEASURED PROPERTY: pIC50

// below: answered molecules
> print(dat)
                                   molecule                                    system  measured.property  obs.value
1  C[C@H](Oc1cc(-n2ccc(C(=O)N[C@@H]3CCOC3)n2)nc(-c2noc3c2CCC[C@@]32CCCc3sc(N)c(C#N)c32)n1)[C@@H]1CCCN1C [II-192]  KRAS (G12D)::SOS1 (Homo sapiens (Human), UniProt P01116, G12D)              pIC50       9.00
2  C[C@H](Oc1cc(N2CCCC2=O)nc(-c2noc3c2CCC[C@@]32CCCc3sc(N)c(C#N)c32)n1)[C@@H]1CCCN1C [II-73]  KRAS (G12D)::SOS1 (Homo sapiens (Human), UniProt P01116, G12D)              pIC50       8.70

1. CO[C@@H]1C[C@@H]([C@H](C)Oc2cc(-c3ccn(C)n3)nc(-c3onc4c3CCC[C@@]43CCCc4sc(N)c(C#N)c43)n2)N(C)C1 [I-23]
2. COCCNC(=O)c1ccn(-c2cc(O[C@@H](C)[C@@H]3CCCN3C)nc(-c3noc4c3CCC[C@@]43CCCc4sc(N)c(C#N)c43)n2)n1 [II-195]
Please indicate which item has the smaller measured pIC50: 1 versus 2 State the label of the item chosen. 1
(1: 8.15, 2: 9.00)

----------
Biological target: KRAS (G12C)::SOS1 (Homo sapiens (Human), UniProt P01116, C118S/C51S/C80L/G12C)
Sequence (P01116 other isoform, or with tags, fused parts or gaps G12C/C51S/C80L/C118S): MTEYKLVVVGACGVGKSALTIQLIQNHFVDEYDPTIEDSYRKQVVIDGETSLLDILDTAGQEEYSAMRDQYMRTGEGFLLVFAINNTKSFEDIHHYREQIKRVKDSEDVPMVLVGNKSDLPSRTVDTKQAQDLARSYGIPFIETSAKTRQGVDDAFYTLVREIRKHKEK
Assay: KRAS::SOS1 AlphaScreen binding assay, KRAS G12C
pIC50: −log10 of the molar value.
MEASURED PROPERTY: pIC50

> print(dat)
                                   compound  obs.value
1  C[C@H](Oc1cc(N2CCN(C)C3(COC3)C2)nc(-c2noc3c2CCC[C@@]32CCCc3sc(N)c(C#N)c32)n1)[C@@H]1CCCN1C [II-13]       8.70

I. C[C@H](Oc1cc(-n2ccc(C#N)n2)nc(-c2noc3c2CCC[C@@]32CCCc3sc(N)c(C#N)c32)n1)[C@@H]1CCCN1C [II-102]
II. CO[C@@H]1C[C@@H]([C@H](C)Oc2cc(-c3cnn(C)n3)nc(-c3onc4c3CCC[C@@]43CCCc4sc(N)c(C#N)c43)n2)N(C)C1 [I-17]
// which entry has the larger pIC50 value, I or II ? State the label of the item chosen. I
(I: 8.70, II: 8.40)

----------
Test: Caco-2 assay (permeability PappAB, PappBA, efflux ratio)
Assay type: in vitro ADME
Conditions: human, Caco-2; efflux ratio PappBA/PappAB; 10 μM test compound, pH 7.4; read-out: Caco ER
MEASURED PROPERTY: efflux ratio at 90 min, 10 μM

> print(dat)
                                   compound  obs.value
1  C[C@H](Oc1cc(-n2cc(-c3cncs3)nn2)nc(-c2noc3c2CCC[C@@]32CCCc3sc(N)c(C#N)c32)n1)[C@@H]1CCCN1C [II-125]        1.3

I. C[C@H](Oc1cc(-n2cc3c(n2)CN(C)C3)nc(-c2noc3c2CCC[C@@]32CCCc3sc(N)c(C#N)c32)n1)[C@@H]1CCCN1C [II-174]
II. C[C@H](Oc1cc(N2CCNC[C@@]23CCOC3)nc(-c2onc3c2CCC[C@@]32CCCc3sc(N)c(C#N)c32)n1)[C@@H]1CCCN1C [I-13]
III. C[C@H](Oc1cc(-n2cc3ccn(C4CCOCC4)c(=O)c3n2)nc(-c2noc3c2CCC[C@@]32CCCc3sc(N)c(C#N)c32)n1)[C@@H]1CCCN1C [II-206]
IV. C[C@H](Oc1cc(-c2cnsc2)nc(-c2noc3c2CCC[C@@]32CCCc3sc(N)c(C#N)c32)n1)[C@@H]1CCCN1C [II-111]
Sort the 4 compounds by efflux ratio at 90 min, 10 μM; largest first, smallest last. Please list each label once, in the requested order. II, III, I, IV
